Test system: Plasmodium falciparum
test_summary: Antiplasmodial activity against chloroquine-sensitive Plasmodium falciparum NF54 infected in human RBC assessed as reduction in [3H]hypoxanthine incorporation preincubated for 48 hrs followed by [3H]hypoxanthine addition measured after 24 hrs by liquid scintillation counting method
Format: functional
// reported IC50 for each item listed
Numbers only; they are read as nM.

> print(dat)
                              input.smiles  readout.value
1        CN1CCN(CCCNc2ccnc3cc(Cl)ccc23)CC1            3.1
2  CN1CCN(CC(=O)NCCNc2ccnc3cc(Cl)ccc23)CC1             36
3  CCCN(CCC)CCN1CCN(c2ccnc3cc(Cl)ccc23)CC1            110
4     O=C(CN1CCCCC1)NCCNc1ccnc2cc(Cl)ccc12             11
5    O=C(CN1CCCCCC1)NCCNc1ccnc2cc(Cl)ccc12             11
6         CN1CCN(CCNc2ccnc3cc(Cl)ccc23)CC1            6.6
7  Clc1ccc2c(N3CCN(CCN4CCCCCC4)CC3)ccnc2c1             70
8      O=C(CN1CCCC1)NCCNc1ccnc2cc(Cl)ccc12             18

Ask: So what does the record say about IC50 for `CCCN(CCC)CC(=O)N1CCN(c2ccnc3cc(Cl)ccc23)CC1` ?
Result: 230

Ask: May I ask what IC50 has been recorded for `Clc1ccc2c(NCCNCCN3CCCCCC3)ccnc2c1` ?
Result: 11

Ask: For `CN1CCN(CC(=O)N2CCN(c3ccnc4cc(Cl)ccc34)CC2)CC1` , what is its reported IC50?
Result: 140

Ask: What IC50 value was documented for this compound, `CCCN(CCC)CCNc1ccnc2cc(Cl)ccc12` ?
Result: 3.3
